Hey, just so you know, these numbers are from ChEMBL document CHEMBL3433997.

# experimental_target: Glucose transporter (Leishmania mexicana) (UniProt O61059)
# experiment_description: ST_JUDE_LEISH: Cytotoxicity at 2uM final concentration against transgenic Leishmania Mexicana promastigotes LmGT2 that are glucose transport deficient and complemented with the L. Mexicana glucose transporter 2. Activity is measured by DNA content using SYBR green in vitro
# Format: functional
Some molecules, each annotated with its measured inhibition.

Consider the reported inhibition for these molecules:
molecule	experimental_target	property_label	val
Cc1cc(CN2CC[C@H](NC(=O)c3ccc(Cl)c(Cl)c3)C2)ccc1OCCN1CCCC1	Glucose transporter (Leishmania mexicana) (UniProt O61059)	inhibition	-2.1%
CCNC(=O)Nc1cccc(-c2ccc(-c3nc4cccc(C)c4[nH]3)s2)c1	Glucose transporter (Leishmania mexicana) (UniProt O61059)	inhibition	0.03%
CCOc1ccccc1NC(=O)C(Sc1nc(C)cc(C)c1C#N)c1ccccc1 (stereo not drawn)	Glucose transporter (Leishmania mexicana) (UniProt O61059)	inhibition	6.45%
O=C1COc2cc(Cl)c(CNC3CCN(CCc4ccnc5c(F)cc(F)cc45)CC3)nc2N1	Glucose transporter (Leishmania mexicana) (UniProt O61059)	inhibition	1.57%
Cc1nc(-c2cccc(Nc3nccc(NCC(O)c4cccc(F)c4)n3)c2)cs1 (stereo not drawn)	Glucose transporter (Leishmania mexicana) (UniProt O61059)	inhibition	-3.57%

What inhibition value was documented for this molecule, COc1cccc(Nc2nnc(SCC(=O)NNC(=O)c3ccccn3)s2)c1 ?
-1.42%

What inhibition value was documented for this molecule, Cc1c(C(=O)N(C)C)sc2c1c(=O)n(Cc1ccccc1)c(=O)n2CC(=O)Nc1ccccc1F ?
1.57%

What inhibition value was documented for this molecule, Cc1nnsc1C(=O)Nc1cccc(-c2ccc(-c3nc4cc(F)ccc4[nH]3)s2)c1 ?
-2.44%

What inhibition value was documented for this molecule, CCC(C(=O)Nc1cc(=O)[nH]c2nc(-c3ccco3)nn12)c1ccccc1 (stereo not drawn) ?
1.71%

What inhibition value was documented for this molecule, CN1CCN(CC(=O)Nc2ccc(-c3cccc(-c4nc5cc(C(F)(F)F)ccc5[nH]4)c3)cc2)CC1 ?
-1.43%

What inhibition value was documented for this molecule, O=C(Cc1ccccc1)NC(CCN1CCC(N(C2CC2)S(=O)(=O)c2cccc(C(F)(F)F)c2)CC1)c1ccc(Cl)c(Cl)c1 (stereo not drawn) ?
3.73%

What inhibition value was documented for this molecule, CN(C)c1ccc(/C=C2\S/C(=N\c3ccccc3)N(c3ccccc3)C2=O)cc1[N+](=O)[O-] ?
-0.79%

What inhibition value was documented for this molecule, CC(C)(C)c1cc(C(=O)N2CCN(c3ncccc3C(F)(F)F)CC2)n(Cc2ccccc2)n1 ?
4.37%

What inhibition value was documented for this molecule, N#Cc1ccc(-c2ccc(C(=O)NCCCCN3CCC(c4ccc5c(c4OCc4ccncc4)CCCC5)CC3)cc2)cc1 ?
1.26%

What inhibition value was documented for this molecule, O=C(NC1CC1)c1ccc(N2CCC(COc3cccc(F)c3)CC2)nc1 ?
6.94%

What inhibition value was documented for this molecule, CNC(=O)c1ccccc1Nc1nc(Nc2ccc(N3CCOCC3)cc2)ncc1Cl ?
74.6%

What inhibition value was documented for this molecule, O=C(Nc1ccccc1)c1ccc(N2CCC(COc3cccc(C(F)(F)F)c3)CC2)nc1 ?
1.07%

What inhibition value was documented for this molecule, C#C[C@H]1O[C@@H](n2cnc3c(Nc4cc(Br)cc(C(F)(F)F)c4)ncnc32)[C@H](O)[C@@H]1O ?
2.53%

What inhibition value was documented for this molecule, C=C(C)Cn1cc(C2CCN(CCCCNC(=O)c3sc(-c4ccc(Cl)cc4Cl)nc3CO)CC2)c2ccccc21 ?
0.05%
